Provenance of the data: patent US20100144712A1

Test system: Candida albican ATCC 90873
Assay Remarks: In vitro antifungal activity (MIC80), Candida albican ATCC 90873
Type: cell-based
Experimental Context: Candida, ATCC90873; Table 2, ATCC 90873; read-out: Minimal inhibitory concentration (MIC80)
Property Name: MIC80 (µg/mL)

Field: example entries. Status: answers known.
Molecule	Assay Result
CC(N1CCCN(c2ccc(C#N)nc2)CC1)C(O)(Cn1cncn1)c1ccc(F)cc1F (stereo not drawn)	0.125
C[C@@H](N1CCCN(c2ccccn2)CC1)[C@](O)(Cn1cncn1)c1ccc(F)cc1F	0.125
C[C@@H](N1CCN(c2cccc(OCc3ccccc3)n2)CC1)[C@](O)(Cn1cncn1)c1ccc(F)cc1F	0.125
C[C@@H](N1CCCN(c2nc3ccccc3o2)CC1)[C@](O)(Cn1cncn1)c1ccc(F)cc1F	0.125
CC(N1CCN(C(=O)c2nc(-c3ccc(Cl)cc3)no2)CC1)C(O)(Cn1cncn1)c1ccc(F)cc1F (stereo not drawn)	0.126
C[C@@H](N1CCN(Cc2ccncc2)CC1)[C@](O)(Cn1cncn1)c1ccc(F)cc1F	0.125

[P] C[C@@H](N1CCN(c2cccc(N(C)CCCN3CCOCC3)n2)CC1)[C@](O)(Cn1cncn1)c1ccc(F)cc1F
[Q] COc1ccc(-c2noc(C(=O)N3CCN([C@H](C)[C@](O)(Cn4cncn4)c4ccc(F)cc4F)CC3)n2)cc1
[R] C[C@@H](N1CCN(c2cccc(OC3CCCC3)n2)CC1)[C@](O)(Cn1cncn1)c1ccc(F)cc1F
List from greatest to least MIC80. In plain terms: list the labels in the order you were asked to.
R, P, Q

[1] C[C@@H](N1CCN(c2ccc(OCCN3CCOCC3)nc2)CC1)[C@](O)(Cn1cncn1)c1ccc(F)cc1F
[2] Cc1ccc(C(=O)c2cnc3sc(C(=O)N4CCN([C@H](C)[C@](O)(Cn5cncn5)c5ccc(F)cc5F)CC4)cn23)cc1
Pick one, 1 or 2 : lowest reported MIC80. Let me know the label of the one you choose.
1
(1: 0.125 µg/mL, 2: 0.25 µg/mL)

[a] Cc1ccc(-c2noc(C(=O)N3CCN([C@H](C)[C@](O)(Cn4cncn4)c4ccc(F)cc4F)CC3)n2)cc1
[b] C[C@@H](N1CCN(c2cccc(OCc3cccs3)n2)CC1)[C@](O)(Cn1cncn1)c1ccc(F)cc1F
Pick one, a or b : lowest reported MIC80. Let me know the label of the one you choose.
a
